B1: Intersectin-1, residues 909 to 971; numbered along this chain, Q15811 (parent)
chain: QGEKVEGLQAQALYPWRAKKDNHLNFNKNDVITVLEQQDMWWFGEVQGQKGWFPKSYVKLISG

- Variants of: B1
- measurement_description: abundance fitness (aPCA) (normalised: wild type 0, dead -1); higher = more abundant; growth selection in yeast, the domain comes from the species named
- measurement_conditions: Homo sapiens
Binary call on abundance fitness: Y from -0.06 upward, N beneath that.

Kindly determine if abundance fitness recorded for N29A is above or exactly -0.06.
N

Identify whether the reported abundance fitness of the following variant is -0.06 or greater: F53E
N

Quick check, abundance fitness >= -0.06? Q9F
N

Item Q11C with abundance fitness of -0.06 or above?
N

Given the entry G63D , answer whether its abundance fitness meets or surpasses -0.06.
Y

Can E45H be said to have abundance fitness at or above -0.06?
Y

Identify whether the reported abundance fitness of the following variant is -0.06 or greater: W42S
N

Is the recorded value of abundance fitness equal to or greater than -0.06 for this variant? Q9E
Y

Form field: abundance fitness at least -0.06? Entry: N27S
N

API: above_or_equal(metric=abundance fitness, cutoff=-0.06) for item W42E
N

Is abundance fitness for Q38R at or above -0.06?
Y

Given Q37I , state whether its abundance fitness is at least -0.06.
N

Does abundance fitness meet or surpass -0.06 for G44P ?
N
